# Tested on: Staphylococcus epidermidis
One threshold, 20 µM, splits the recorded MIC values: lower ones are MET, equal or higher ones are NOT MET.

Worked set:
MOLECULE: CC(C)C[C@H](NC(=O)[C@H](C)NC(=O)[C@H](Cc1c[nH]c2ccccc12)NC(=O)[C@H](CC(C)C)NC(=O)[C@@H](N)Cc1ccccc1)C(=O)N[C@@H](Cc1ccccc1)C(=O)N[C@@H](CCCCN)C(=O)N[C@H](C(=O)N[C@@H](C)C(=O)N[C@@H](CO)C(=O)N[C@@H](CCCCN)C(=O)O)C(C)C [FLWALFKVASK]
DISCRETE LABEL: MET
//
MOLECULE: CC(C)[C@H](NC(=O)CNC(=O)[C@@H](N)CC(N)=O)C(=O)N[C@@H](CCC(N)=O)C(=O)N1CCC[C@H]1C(=O)N[C@@H](CCCCN)C(=O)N[C@@H](Cc1ccc(O)cc1)C(=O)O [NGVQPKY]
DISCRETE LABEL: NOT MET
//
MOLECULE: CC[C@H](C)[C@H](NC(=O)[C@H](C)NC(=O)[C@@H]1CCCN1C(=O)[C@H](CC(C)C)NC(=O)[C@@H](NC(=O)[C@H](Cc1cnc[nH]1)NC(=O)[C@H](CO)NC(=O)[C@@H](NC(=O)[C@@H](NC(=O)[C@H](CO)NC(=O)CNC(=O)[C@H](CC(C)C)NC(=O)[C@H](CC(C)C)NC(=O)CNC(=O)[C@H](CC(C)C)NC(=O)[C@H](CC(C)C)NC(=O)CN)C(C)C)C(C)C)C(C)C)C(=O)N[C@H](C(=O)N[C@@H](CCC(N)=O)C(=O)N[C@@H](Cc1cnc[nH]1)C(=O)N[C@@H](CC(C)C)C(N)=O)[C@@H](C)O [GLLGLLGSVVSHVLPAITQHL]
DISCRETE LABEL: NOT MET
//
MOLECULE: CC[C@H](C)[C@H](NC(=O)CN)C(=O)N[C@@H](CCSC)C(=O)N[C@H](C(=O)N[C@@H](CO)C(=O)N[C@@H](CC(C)C)C(=O)N[C@@H](CCSC)C(=O)N[C@@H](CCCCN)C(=O)N[C@@H](CCCCN)C(=O)N[C@@H](CC(C)C)C(=O)N[C@@H](C)C(=O)N[C@@H](C)C(=O)N[C@@H](Cc1cnc[nH]1)C(=O)N[C@H](C(=O)N[C@@H](C)C(=O)N[C@@H](CCCCN)C(N)=O)[C@@H](C)CC)[C@@H](C)CC [GIMISLMKKLAAHIAK]
DISCRETE LABEL: MET
//
MOLECULE: CC[C@H](C)[C@H](NC(=O)[C@H](Cc1c[nH]c2ccccc12)NC(=O)[C@H](CC(C)C)NC(=O)[C@H](CCCN=C(N)N)NC(=O)[C@@H](N)C(C)C)C(=O)N[C@@H](CCCN=C(N)N)C(=O)N[C@H](C(=O)N[C@@H](C)C(=O)N[C@H](C(=O)N[C@H](C(=O)N[C@@H](CCCN=C(N)N)C(=O)N[C@@H](C)C(N)=O)[C@@H](C)CC)C(C)C)C(C)C [VRLWIRVAVIRA]
DISCRETE LABEL: MET

Now consider a different molecule.
Query :: I'd appreciate it if you could check whether CC(C)C[C@H](NC(=O)[C@H](C)NC(=O)CNC(=O)[C@H](CC(C)C)NC(=O)[C@@H](N)Cc1ccccc1)C(=O)N[C@@H](Cc1ccccc1)C(=O)N[C@@H](CCCCN)C(=O)N[C@H](C(=O)N[C@@H](C)C(=O)N[C@@H](CO)C(=O)N[C@@H](Cc1c[nH]c2ccccc12)C(=O)O)C(C)C [FLGALFKVASW] has MIC smaller than 20 µM.
Result :: NOT MET
